Data provenance: ChEMBL document CHEMBL3865784

# pIC50 annotations
experiment: Cytotoxicity against NQO1-deficient human PBMC assessed as reduction in cell viability after 72 hrs by MTT assay; assay type: toxicity, cell-based; settings: pbmc
FYI, pIC50 means -log10 of a concentration in mol per litre.

C#Cc1cccc(NC2C3=C(OC2(C)C)c2ccccc2C(=O)C3=O)c1 (stereo not given)    5.55
CC1(C)OC2=C(C(=O)c3ccccc3C2=O)C1N=[N+]=[N-] (stereo not given)    5.50

Attention now shifts to the item below.
Quick check: pIC50 of CC1(C)CC(Nc2cccc(-c3cn(C[Se]c4ccccc4)nn3)c2)C2=C(O1)C(=O)c1ccccc1C2=O (stereo not given) ? 5.38
